# assay details: pKa and LogP determination with a Sirius GLPKa instrument
# Assay type: physicochemical
readout kind: logP
Answer as a number with no unit attached.

Briefly, logP measured for COCCOCCOCCOc1cc([N+](=O)[O-])ccc1-c1ccc(C=NN2CC(=O)NC2=O)o1 : -0.6

Noted for COCCOCCOCCOCCOCCOCCOCCOc1cc([N+](=O)[O-])ccc1-c1ccc(C=NN2CC(=O)NC2=O)o1 : its logP reads 0.62

Entry under test: COCCOCCOCCOCCOCCOc1cc([N+](=O)[O-])ccc1-c1ccc(C=NN2CC(=O)NC2=O)o1 . Its logP was 0.74
